# assayTarget: Toll-like receptor 4 (Homo sapiens)
# Sequence (O00206 whole entry): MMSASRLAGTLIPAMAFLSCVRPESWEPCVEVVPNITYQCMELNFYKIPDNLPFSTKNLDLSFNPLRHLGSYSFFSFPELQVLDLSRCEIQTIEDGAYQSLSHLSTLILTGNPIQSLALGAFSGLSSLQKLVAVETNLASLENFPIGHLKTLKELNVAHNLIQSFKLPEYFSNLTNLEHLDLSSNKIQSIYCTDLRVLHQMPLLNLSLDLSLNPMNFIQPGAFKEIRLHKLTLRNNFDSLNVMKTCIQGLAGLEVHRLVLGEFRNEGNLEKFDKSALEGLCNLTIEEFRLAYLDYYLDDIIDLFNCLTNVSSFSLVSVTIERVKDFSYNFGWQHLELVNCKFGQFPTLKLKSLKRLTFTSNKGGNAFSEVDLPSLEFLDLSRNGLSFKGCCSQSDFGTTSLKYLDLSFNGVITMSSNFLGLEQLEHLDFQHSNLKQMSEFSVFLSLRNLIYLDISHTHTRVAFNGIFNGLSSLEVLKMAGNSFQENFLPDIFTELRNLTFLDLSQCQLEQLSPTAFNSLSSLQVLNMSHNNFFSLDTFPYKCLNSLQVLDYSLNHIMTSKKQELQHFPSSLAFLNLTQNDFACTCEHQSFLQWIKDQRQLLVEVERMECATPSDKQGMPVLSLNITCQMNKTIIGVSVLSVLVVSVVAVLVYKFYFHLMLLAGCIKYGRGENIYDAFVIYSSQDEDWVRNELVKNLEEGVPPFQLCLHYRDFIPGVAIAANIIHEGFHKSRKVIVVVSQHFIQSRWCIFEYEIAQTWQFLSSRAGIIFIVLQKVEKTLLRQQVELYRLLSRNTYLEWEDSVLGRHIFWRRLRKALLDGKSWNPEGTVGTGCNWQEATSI
# assayComment: Antagonist activity at human TLR4 in HEK-Blue hTLR4 cells assessed as inhibition of LPS-induced receptor activation preincubated with LPS followed by compound addition and measured 24 hrs by Quanti-Blue based SEAP reporter gene assay
measuredQuantity: IC50 (µM)

>>> observedresult("O=[N+]([O-])/C=C/c1cccc(Oc2nccs2)c1")
2.4
>>> observedresult("O=[N+]([O-])/C=C/c1cccc(Oc2ccccn2)c1")
1
>>> observedresult("O=C(Nc1ccccn1)c1cccc(/C=C/[N+](=O)[O-])c1")
3.6
>>> observedresult("O=[N+]([O-])/C=C/c1cccc(OCc2ccccn2)c1")
1.4
>>> observedresult("CCCCOc1cccc(/C=C/[N+](=O)[O-])c1")
5.8
>>> observedresult("O=[N+]([O-])/C=C/c1cccc(OCc2ccc(Cl)cc2)c1")
4.8
>>> observedresult("O=[N+]([O-])/C=C/c1cccc(Oc2ccccc2)c1")
4.3
>>> observedresult("O=[N+]([O-])/C=C/c1cccc(-c2ccccn2)c1")
0.28
>>> observedresult("O=[N+]([O-])/C=C/c1cccc(OCC2CC2)c1")
2.5
>>> observedresult("CCCCOC(=O)c1ccc(COc2cccc(/C=C/[N+](=O)[O-])c2)nc1")
3.7
>>> observedresult("O=[N+]([O-])/C=C/c1cccc(Oc2ncccn2)c1")
6.2
>>> observedresult("CN(C)c1ccc(/C=C/[N+](=O)[O-])cc1Nc1ccccn1")
3.7
>>> observedresult("CCOC(=O)c1ccc(COc2cccc(/C=C/[N+](=O)[O-])c2)nc1")
9.2
>>> observedresult("O=[N+]([O-])/C=C/c1cccc(OCc2ccncc2)c1")
3.9

Cited source: ChEMBL document CHEMBL5107941
